# System: VA-ES-BJ
# test-description: relative viability vs DMSO control (72 h) (fraction); higher = more viable cells
# experimental-parameters: 3.333 µM
I'd appreciate it if you marked entries rule met when relative viability is lower than 0.6 and rule not met when it is not.

Data request: Given C[C@]12O[C@H](C[C@]1(O)CO)n1c3ccccc3c3c4c(c5c6ccccc6n2c5c31)CNC4=O , is recorded relative viability strictly lower than 0.6?
Data returned: rule met

Data request: Given N#CC1(c2ccc(NC(=O)c3cccnc3NCc3ccncc3)cc2)CCCC1 , is recorded relative viability strictly lower than 0.6?
Data returned: rule not met

Data request: Given Cn1cc(C2=C(c3cn(C4CCN(Cc5ccccn5)CC4)c4ccccc34)C(=O)NC2=O)c2ccccc21 , is recorded relative viability strictly lower than 0.6?
Data returned: rule not met

Data request: Given CC(C)(O)CNc1nc(Nc2ccnc(C(F)(F)F)c2)nc(-c2cccc(C(F)(F)F)n2)n1 , is recorded relative viability strictly lower than 0.6?
Data returned: rule not met

Data request: Given CC1(COc2ccc3c(c2)ncn3-c2ccc3cccc(N4CCC(N)CC4)c3n2)COC1 , is recorded relative viability strictly lower than 0.6?
Data returned: rule met

Data request: Given CCN1C(=O)N(c2c(F)c(OC)cc(OC)c2F)Cc2cnc3[nH]c(CN4CCOCC4)cc3c21 , is recorded relative viability strictly lower than 0.6?
Data returned: rule not met

Data request: Given COC(=O)N[C@@H](C)CNc1nccc(-c2cn(C(C)C)nc2-c2cc(Cl)cc(NS(C)(=O)=O)c2F)n1 , is recorded relative viability strictly lower than 0.6?
Data returned: rule not met

Data request: Given C[C@H](Nc1ncnc2nc[nH]c12)c1cc2cccc(Cl)c2c(=O)n1-c1ccccc1 , is recorded relative viability strictly lower than 0.6?
Data returned: rule not met

---

# System: HS729
# test-description: relative viability vs DMSO control (72 h) (fraction); higher = more viable cells
# experimental-parameters: 0.04115 µM
I'd appreciate it if you marked entries 1.0 when relative viability is lower than 0.9 and 0.0 when it is not.

Data request: Given C[C@]12O[C@H](C[C@]1(O)CO)n1c3ccccc3c3c4c(c5c6ccccc6n2c5c31)CNC4=O [Lestaurtinib] , is recorded relative viability strictly lower than 0.9?
Data returned: 1.0

Data request: Given CCC(=O)N1CC[C@H](Nc2ncnc3c2CN(c2cnc(OC)c(C(F)(F)F)c2)CC3)C1 [Leniolisib] , is recorded relative viability strictly lower than 0.9?
Data returned: 0.0

Data request: Given N#CC1(c2ccc(NC(=O)c3cccnc3NCc3ccncc3)cc2)CCCC1 [Apatinib] , is recorded relative viability strictly lower than 0.9?
Data returned: 0.0

Data request: Given N#CCNC(=O)c1ccc(-c2ccnc(Nc3ccc(N4CCOCC4)cc3)n2)cc1 [Momelotinib] , is recorded relative viability strictly lower than 0.9?
Data returned: 0.0

Data request: Given CNC(=O)c1nnc(NC(=O)C2CC2)cc1Nc1cccc(-c2ncn(C)n2)c1OC , is recorded relative viability strictly lower than 0.9?
Data returned: 0.0

Data request: Given COC(=O)N[C@@H](C)CNc1nccc(-c2cn(C(C)C)nc2-c2cc(Cl)cc(NS(C)(=O)=O)c2F)n1 [Encorafenib] , is recorded relative viability strictly lower than 0.9?
Data returned: 0.0

Data request: Given COc1cc(OC)c(/C=C/S(=O)(=O)Cc2ccc(OC)c(NCC(=O)O)c2)c(OC)c1 [Rigosertib] , is recorded relative viability strictly lower than 0.9?
Data returned: 0.0

Data request: Given CN1CCN(c2ccc(C(=O)Nc3n[nH]c4ccc(Cc5cc(F)cc(F)c5)cc34)c(NC3CCOCC3)c2)CC1 [Entrectinib] , is recorded relative viability strictly lower than 0.9?
Data returned: 0.0

Data request: Given CC[C@@H]1CN(C(=O)NCC(F)(F)F)C[C@@H]1c1cnc2cnc3[nH]ccc3n12 [Upadacitinib] , is recorded relative viability strictly lower than 0.9?
Data returned: 0.0

Data request: Given C[C@H](Nc1ncnc2nc[nH]c12)c1cc2cccc(Cl)c2c(=O)n1-c1ccccc1 [Duvelisib] , is recorded relative viability strictly lower than 0.9?
Data returned: 0.0

Data request: Given CC(C)NC[C@@H](C(=O)N1CCN(c2ncnc3c2[C@H](C)C[C@H]3O)CC1)c1ccc(Cl)cc1 [Ipatasertib] , is recorded relative viability strictly lower than 0.9?
Data returned: 1.0
